# experimental details: Drug metabolism in rat serum assessed as compound remaining at 1 uM after 30 mins by HPLC/MS/MS analysis relative to control
# Format: ADME, cell-free
# reported conditions: read-out: Stability
readout kind: remaining at 0.5 h, 1 µM (%)

Use the examples below as a reference point.
C[C@@H]1CN(CCOC(=O)c2ccc3c(c2)c2nc(N4CCC[C@@H](N)C4)n(Cc4ccccc4Cl)c2c(=O)n3C)C[C@H](C)O1.Cl    92
Cl.Cn1c(=O)c2c(nc(N3CCC[C@@H](N)C3)n2Cc2ccccc2Cl)c2cc(C(=O)OCCN3CCOCC3)ccc21    50
Cl.Cn1c(=O)c2c(nc(N3CCC[C@@H](N)C3)n2Cc2ccccc2Cl)c2cc(C(=O)OCCCN3CCOCC3)ccc21    76
CN(C)CCOC(=O)c1ccc2c(c1)c1nc(N3CCC[C@@H](N)C3)n(Cc3ccccc3Cl)c1c(=O)n2C.Cl    97

1: CN(C)CCCOC(=O)c1ccc2c(c1)c1nc(N3CCC[C@@H](N)C3)n(Cc3ccccc3Cl)c1c(=O)n2C.Cl
2: Cl.Cn1c(=O)c2c(nc(N3CCC[C@@H](N)C3)n2Cc2ccccc2Cl)c2cc(C(=O)OCOC(=O)C(C)(C)C)ccc21
3: COC(=O)c1ccc2c(c1)c1nc(N3CCC[C@@H](N)C3)n(Cc3ccccc3Cl)c1c(=O)n2C.Cl
4: COC(=O)c1ccc2c3nc(N4CCC[C@@H](N)C4)n(Cc4ccccc4Cl)c3c(=O)n(C)c2c1.Cl
Exercise: Please rank these compounds by remaining at 0.5 h, 1 µM in descending order. Ranked list of labels, please, in the requested order.
Key: 3, 1, 4, 2

----------
# experimental details: Permeability of the compound at pH 5 by PAMPA
# Format: ADME
# reported conditions: read-out: permeability
readout kind: Papp (×10⁻⁶ cm/s)

I: COC(=O)c1ccc2c(c1)c1nc(N3CCC[C@@H](N)C3)n(Cc3ccccc3Cl)c1c(=O)n2C.Cl
II: Cc1oc(=O)oc1COC(=O)c1ccc2c3nc(N4CCC[C@@H](N)C4)n(Cc4cc(F)ccc4Cl)c3c(=O)n(C)c2c1.Cl
III: Cl.Cn1c(=O)c2c(nc(N3CCC[C@@H](N)C3)n2Cc2ccccc2Cl)c2cc(C(=O)OCCN3CCOCC3)ccc21
Exercise: Kindly provide a descending ordering of the above compounds based on their Papp. Ranked list of labels, please, in the requested order.
Key: I, II, III

----------
# experimental details: Drug metabolism in Sprague-Dawley rat liver S9 fraction assessed as compound remaining at 1 uM after 30 mins by HPLC/MS/MS analysis relative to control
# Format: ADME, subcellular
# reported conditions: read-out: Stability
readout kind: remaining at 0.5 h, 1 µM (%)

Use the examples below as a reference point.
Cc1oc(=O)oc1COC(=O)c1ccc2c(c1)c1nc(N3CCC[C@@H](N)C3)n(Cc3cc(F)ccc3Cl)c1c(=O)n2C.Cl    1
COC(=O)c1ccc2c3nc(N4CCC[C@@H](N)C4)n(Cc4ccccc4Cl)c3c(=O)n(C)c2c1.Cl    70
Cc1oc(=O)oc1COC(=O)c1ccc2c3nc(N4CCC[C@@H](N)C4)n(Cc4ccccc4Cl)c3c(=O)n(C)c2c1.Cl    1
Cc1oc(=O)oc1COC(=O)c1ccc2c3nc(N4CCC[C@@H](N)C4)n(Cc4cc(F)ccc4Cl)c3c(=O)n(C)c2c1.Cl    3.6

1: Cl.Cn1c(=O)c2c(nc(N3CCC[C@@H](N)C3)n2Cc2ccccc2Cl)c2cc(C(=O)OCCCN3CCOCC3)ccc21
2: C[C@@H]1CN(CCOC(=O)c2ccc3c(c2)c2nc(N4CCC[C@@H](N)C4)n(Cc4ccccc4Cl)c2c(=O)n3C)C[C@H](C)O1.Cl
Exercise: Endpoint returns the identifier whose remaining at 0.5 h, 1 µM is numerically larger, either 1 or 2 . # reply format: chosen label
Key: 1
(1: 78%, 2: 30%)
